# TGT: Glutathione peroxidase 1 (Homo sapiens) (UniProt P07203)
# Sequence (P07203 whole entry, looked up): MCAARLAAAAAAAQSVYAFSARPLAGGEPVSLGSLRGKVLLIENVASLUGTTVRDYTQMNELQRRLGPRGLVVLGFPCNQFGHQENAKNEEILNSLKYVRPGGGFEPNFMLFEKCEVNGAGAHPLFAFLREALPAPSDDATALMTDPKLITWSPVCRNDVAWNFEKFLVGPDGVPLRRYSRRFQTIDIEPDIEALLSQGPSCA
# EXPERIMENT_SUMMARY: Primary qHTS Assay for Inhibitors of Recombinant Selenoprotein Glutathione Peroxidase 1 (GPX1) (AID 1845191); note: nearly all actives have a fitted effect of over 65% in size
# CONDITION_SET: recombinant GPX1, GR-coupled NADPH fluorescence, 15 min; series mostly up to 48.8 µM
Records with an inconclusive call do not appear. Activity calls are given as the source filed them. Calls come from the whole dose curve; as a rule, active = well fitted inhibition curve with a large enough effect; inconclusive = small, poorly fitted or top-dose-only effect; inactive = flat fitted curve, though single readings scatter.
READOUT_NAME: activity, negative = inhibition

Example entries and their recorded answers appear below.
{"columns": ["MOLECULE", "TGT", "REPORTED_RESULT"],
 "data": [
  ["CC1CCC23COC(=O)C2=CC(O)CC3C1(C)CCC1=CC(O)OC1=O (stereo unspecified)", "Glutathione peroxidase 1 (Homo sapiens) (UniProt P07203)", "inactive"],
  ["CO[C@H]1C[C@@H]2CC[C@@H](C)[C@@](O)(O2)C(=O)C(=O)N2CCCC[C@H]2C(=O)O[C@H]([C@H](C)C[C@H]2CC[C@@H](OP(C)(C)=O)[C@H](OC)C2)CC(=O)[C@H](C)/C=C(\\C)[C@@H](O)[C@@H](OC)C(=O)[C@H](C)C[C@H](C)/C=C/C=C/C=C/1C", "Glutathione peroxidase 1 (Homo sapiens) (UniProt P07203)", "inactive"],
  ["CO[C@H]1/C=C/C=C/C=C/C[C@H](OC(=O)[C@@H](C)NC(=O)C2CCCCC2)[C@H](C)[C@@H](O)/C(C)=C/CCc2cc(O)cc(c2)NC(=O)C1", "Glutathione peroxidase 1 (Homo sapiens) (UniProt P07203)", "inactive"],
  ["CO[C@H]1/C=C\\O[C@@]2(C)Oc3c(C)c(O)c4c(O)c(c5c(nc6cc(C)ccn65)c4c3C2=O)NC(=O)/C(C)=C\\C=C/[C@H](C)[C@H](O)[C@@H](C)[C@@H](O)[C@@H](C)[C@H](OC(C)=O)[C@@H]1C", "Glutathione peroxidase 1 (Homo sapiens) (UniProt P07203)", "inactive"],
  ["Cc1cc(C)c(CNC(=O)c2cc(-c3ccc(CN4CCOCC4)cc3)cc3c2cnn3C2CCCC2)c(=O)[nH]1", "Glutathione peroxidase 1 (Homo sapiens) (UniProt P07203)", "inactive"]
]}

Reported activity, negative = inhibition ( O=C1NC(=O)C(c2cn(-c3ccccc3)nc2-c2ccc(F)cc2)N1 (stereo unspecified) ) = inactive
